molecular target: Metabotropic glutamate receptor 8 (Rattus norvegicus); experiment: mGluR8 Gi/Go-coupled signaling modulation – cell-based, rat, thallium flux, HTS, primary screen (AID 488969); conditions: HEK293 rat mGluR8, GIRK thallium flux, FluoZin2; at 10 µM; stronger effect = higher value; submaximal glutamate (EC20) added with thallium
The full ranking holds about 110,000 compounds; the median of “z-score” is about -0.1, and the highest 2% start at about 2. The list comes from a sample in which the highest values are over-represented; it also holds close analogues and randomly drawn compounds.
Classification field: enter rule met for z-score values not below 0.1, rule not met for values below it.

> print(dat)
                                   compound     class
1  N=c1c2c(-c3ccccc3)c(-c3ccccc3)n(Cc3ccccc3)c2ncn1CCO  rule met

Hi team, for O=C(CSc1nnc(-c2ccc(OC(F)F)cc2)o1)NC(=O)NCc1ccco1 , is the recorded z-score at or above 0.1?
rule not met

Tell me whether z-score is at least 0.1 here: N=c1c2c(-c3ccccc3)c(-c3ccccc3)n(Cc3ccco3)c2ncn1CCN1CCOCC1
rule not met

Decide: z-score of CCC(=O)Nc1nc2ccc3nc(C)sc3c2s1 >= 0.1?
rule met

====

target: Metabotropic glutamate receptor 8 (Rattus norvegicus) (UniProt P70579); assay: mGluR8 Gi/Go-coupled signaling modulation – cell-based, rat, thallium flux, HTS, primary screen (AID 488969); settings: HEK293 rat mGluR8, GIRK thallium flux, FluoZin2; at 10 µM; stronger effect = higher value; submaximal glutamate (EC20) added with thallium
Sequence (P70579 whole entry, looked up): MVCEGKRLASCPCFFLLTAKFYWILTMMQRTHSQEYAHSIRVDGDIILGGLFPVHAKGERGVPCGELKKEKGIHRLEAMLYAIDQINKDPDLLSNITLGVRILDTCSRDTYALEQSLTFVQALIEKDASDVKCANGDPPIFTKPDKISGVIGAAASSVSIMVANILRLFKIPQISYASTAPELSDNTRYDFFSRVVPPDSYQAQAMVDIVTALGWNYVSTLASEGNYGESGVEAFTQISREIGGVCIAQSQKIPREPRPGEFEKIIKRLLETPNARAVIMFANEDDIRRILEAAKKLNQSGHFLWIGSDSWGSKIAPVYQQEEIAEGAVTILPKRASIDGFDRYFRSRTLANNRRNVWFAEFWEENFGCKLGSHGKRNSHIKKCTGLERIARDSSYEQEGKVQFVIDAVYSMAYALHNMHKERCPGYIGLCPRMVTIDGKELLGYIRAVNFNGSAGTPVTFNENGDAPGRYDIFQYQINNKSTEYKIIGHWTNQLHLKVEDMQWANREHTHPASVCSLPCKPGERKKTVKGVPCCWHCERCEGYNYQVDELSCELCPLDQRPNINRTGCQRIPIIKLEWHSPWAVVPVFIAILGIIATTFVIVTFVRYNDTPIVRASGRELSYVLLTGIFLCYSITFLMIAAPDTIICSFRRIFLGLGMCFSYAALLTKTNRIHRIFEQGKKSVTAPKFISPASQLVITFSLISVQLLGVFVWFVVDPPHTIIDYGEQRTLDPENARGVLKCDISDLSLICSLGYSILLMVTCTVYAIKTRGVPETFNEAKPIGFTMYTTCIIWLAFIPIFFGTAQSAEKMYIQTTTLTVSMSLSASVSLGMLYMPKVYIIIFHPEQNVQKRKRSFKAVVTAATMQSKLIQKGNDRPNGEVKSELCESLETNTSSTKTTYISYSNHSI
The full ranking holds about 110,000 compounds; the median of “z-score” is about -0.1, and the highest 2% start at about 2. The sample holds the highest values, similar compounds and a random draw of the others, so the mix is not that of the screen.
outcomeMeasure: z-score
Just the number.

Sample answers from the record:
> print(dat)
                                   compound                            targetorsystem  measuredvalue
1         O=C(O)c1ccc(CNCc2c(Cl)cccc2Cl)cc1  Metabotropic glutamate receptor 8 (Rattus norvegicus) (UniProt P70579)         0.0291
2  O=C(CCn1c(=S)[nH]c2ccccc2c1=O)NCC1CCCO1 (centres undefined)  Metabotropic glutamate receptor 8 (Rattus norvegicus) (UniProt P70579)         -0.275
3                 CC1CCN(c2ncccc2C(=O)O)CC1  Metabotropic glutamate receptor 8 (Rattus norvegicus) (UniProt P70579)           4.14

Notebook: CCOc1ccc(NS(=O)(=O)c2ccc3c(c2)CCN3C(=O)C2CCC2)cc1 , z-score read as -0.102

What the record says about S=C(NCC1CCCO1)Nc1ccc(Cl)cc1Cl (centres undefined) : z-score is 0.145

Reported z-score of Cc1cc(=O)oc2cc(OCC(=O)OCc3nnc(-c4ccccc4)o3)ccc12 : -0.34

Lookup result for Oc1[nH]c2c(Cl)cc(Cl)cc2c1N=NC(=S)NCC1CCCO1 (centres undefined) ; measured z-score: 7.5

Consider CCCCCCC1CC(CSc2ncn[nH]2)OC1=O (centres undefined) . Its measured z-score is -0.0128

For this compound ( Oc1[nH]c2ccccc2c1N=NC(=S)NCC1CCCO1 (centres undefined) ), measured z-score is 3.01

For Cc1cccnc1NC(=O)C1CCCN(S(=O)(=O)c2ccc3c(c2)oc(=O)n3C)C1 (centres undefined) the compound record lists z-score as 0.166

Record summary for O=C(Nc1ncccn1)c1cc([N+](=O)[O-])cc([N+](=O)[O-])c1 : reported z-score = -0.131

Measured z-score of CC1(C)Cc2[nH]c(=O)c(C#N)cc2CS1 : 0.0257

====

biological target: Metabotropic glutamate receptor 8 (Rattus norvegicus); experiment: mGluR8 Gi/Go-coupled signaling modulation – cell-based, rat, thallium flux, HTS, primary screen (AID 488969); conditions: HEK293 rat mGluR8, GIRK thallium flux, FluoZin2; at 10 µM; stronger effect = higher value; submaximal glutamate (EC20) added with thallium
In all, about 110,000 compounds were measured (“z-score”: median about -0.1, highest 2% from about 2 on). For the sample, the highest values were picked, then their nearest neighbours and some compounds at random.
Entries and their measured z-score follow.
Enter the number alone.

Example entries and their recorded answers appear below.
> print(dat)
                                   compound  outcomemeasure  measuredvalue
1       Cc1cc(N2CCCCC2)n2ncc(-c3ccccc3)c2n1         z-score         -0.231
2              Cc1cc(C)c(C)c(OCCCn2ccnc2)c1         z-score         -0.369
3  Cc1cc(N2CCC(C)CC2)n2nc(C)c(-c3ccccc3)c2n1         z-score          -0.28
4  CC(=O)C1=C(C)NC(SCC(=O)c2ccccc2)=C(C#N)C1c1ccco1 (stereo unspecified)         z-score          -1.16
5  CCOC(=O)C1=C(C)NC(=O)NC1c1cccnc1 (stereo unspecified)         z-score           0.62
6       Cc1cc(N2CCOCC2)n2ncc(-c3ccccc3)c2n1         z-score         -0.401

Turning to the following compound.
Reported z-score ( CCn1cc(C(=O)Nc2nnc(C)s2)c(=O)c2cc(F)c(N3CCN(C(=O)c4ccco4)CC3)cc21 ) = -0.178

====

molecular target: Metabotropic glutamate receptor 8 (Rattus norvegicus); assay: mGluR8 Gi/Go-coupled signaling modulation – cell-based, rat, thallium flux, HTS, primary screen (AID 488969); conditions: HEK293 rat mGluR8, GIRK thallium flux, FluoZin2; at 10 µM; stronger effect = higher value; submaximal glutamate (EC20) added with thallium
Whole data set: some 110,000 compounds, median “z-score” near -0.1, cut for the highest 2% near 2. The list comes from a sample in which the highest values are over-represented; it also holds close analogues and randomly drawn compounds.
Think of 1 as a floor: if z-score stands on it or above, it is Satisfied; beneath it, Not satisfied.

Observe how each entry below is paired with its result.
> print(dat)
                                testsmiles          class
1  O=C(Cc1ccccc1)NC(=S)Nc1cccc(C(F)(F)F)c1      Satisfied
2                    CCCCNC(=S)NCCN1CCCCC1  Not satisfied

Does S=C(NCc1ccccc1)NCc1ccc2c(c1)OCO2 have a reported z-score of at least 1?
Satisfied

Item CCC(=O)Nc1cccc(NC(=S)NC(=O)Cc2ccccc2)c1 with z-score of 1 or above?
Not satisfied

Kindly determine if z-score recorded for Cc1noc(C)c1COc1cccc(C(=O)OCC(=O)NC(=O)c2ccc(OC(F)F)cc2)c1 is above or exactly 1.
Not satisfied

Could you verify whether the entry COc1cccc(-c2nc(Oc3cc(C)cc(C)c3)c3ccccc3n2)c1O shows z-score of no less than 1?
Not satisfied

Reported z-score at or above 1? S=C(NCc1ccccc1)NCc1ccccc1
Not satisfied

Decide: is the reported value of z-score for CCCOc1cccc(C(=O)NC(=S)Nc2cccc(C(F)(F)F)c2)c1 equal to or greater than 1?
Satisfied

Hi team, for S=C(NCc1ccccc1)NCc1cccc(CNC(=S)NCc2ccccc2)c1 , is the recorded z-score at or above 1?
Satisfied

Is it the case that CCCCOc1nc(N)nc(-c2ccccc2)n1 has z-score reaching or exceeding 1?
Not satisfied

====

target: Metabotropic glutamate receptor 8 (Rattus norvegicus); assay: mGluR8 Gi/Go-coupled signaling modulation – cell-based, rat, thallium flux, HTS, primary screen (AID 488969); conditions: HEK293 rat mGluR8, GIRK (G protein-gated inwardly rectifying potassium channel) thallium flux, FluoZin2; at 10 µM; stronger effect = higher value; submaximal glutamate (EC20) added with thallium
Over roughly 110,000 compounds, “z-score” has its median near -0.1; the highest 2% begin near 2. For the sample, the highest values were picked, then their nearest neighbours and some compounds at random. Activity calls are given as the source filed them.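 How the source made its calls: active means z-score in the third read window above 3 or below -3; inactive means the rest.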
As shown below, each of these molecules has a reported z-score value.

Study these solved cases before continuing.
> print(dat)
                                   molecule  outcomemeasure  measuredvalue
1         Cc1csc(NC(=O)CSCC(=O)Nc2ccccc2)n1         z-score          0.462
2  COc1ccccc1NC(=O)CSc1nnc(-c2ccccn2)n1Cc1ccco1         z-score          -1.55
3  O=C(CSc1nnc(-c2cnccn2)n1Cc1ccco1)c1ccccc1         z-score           2.15
4  CCSc1nnc(NC(=O)C(Cc2ccccc2)n2cccc2)s1 (stereo not drawn)         z-score  4.24 (active)
5  Clc1ccc(CSc2nnc(-c3ccccn3)n2Cc2ccco2)c(Cl)c1         z-score          0.104

What the record says about Cc1ccc(NC(=O)c2ccc(COc3ccc4c(c3)CCC4)cc2)c(C)c1 : z-score is 3.36 (active)

response.value for O=C(Nc1ncc(Br)s1)C(Cc1ccccc1)n1cccc1 (stereo not drawn) (field: z-score) = 7 (active)

According to the records, this molecule O=C(CSc1nnc(-c2ccccn2)n1Cc1ccco1)c1ccccc1 displays z-score of 1.88

So, Cc1csc(NC(=O)C(Cc2ccccc2)n2cccc2)n1 (stereo not drawn) ? Its z-score was 5.2 (active)

Entry CSc1nnc2n(Cc3ccccc3)c(=O)c3c4c(sc3n12)COC(C(C)C)C4 (stereo not drawn) — recorded z-score = -0.311

Reported z-score of COc1ccccc1NC(=O)c1ccc(COc2ccc3c(c2)CCC3)cc1 : -0.228

The recorded z-score for Cc1ccccc1NC1=NC(=S)N(c2ccccc2)C12CCOC(C)(C)C2 (stereo not drawn) is 12.6 (active)

Record O=C(NC1CCCC1)C(Cc1ccccc1)n1cccc1 (stereo not drawn) . Reported z-score: 0.182

Looking up CCSc1nnc(NC(=O)[C@@H](NC(=O)c2ccccc2)C(C)C)s1 , I found its z-score recorded as -0.168

Noted for COC(=O)c1ccccc1NC(=O)c1ccc(COc2ccc3c(c2)CCC3)cc1 : its z-score reads -0.271

Measured z-score, COc1ccc(C)cc1NC(=O)CSc1nnc(-c2ccccn2)n1Cc1ccco1 : 0.359

The recorded z-score for entry CCN(CC)C(=O)Oc1ccc2cc(Br)ccc2c1 equals 0.935

get_value(item= Clc1ccccc1CSc1nnc(-c2ccccn2)n1Cc1ccco1 , readout=z-score) returns 0.314

Value of measured z-score for the entry O=C1C2C(c3ccccc3)C=CC(c3ccccc3)C2C(=O)N1c1ccncc1 (stereo not drawn) : -0.325

Form: molecule = N#CC1=C(S)N=C(N)C(c2nc(-c3ccccc3)cs2)C12CCCC2 (stereo not drawn) ; z-score = 0.271

The reported z-score of the molecule O=C(Nc1cccnc1)C(Cc1ccccc1)n1cccc1 (stereo not drawn) was 0.0231

GET /value?item= CCOC(=O)C1=C(C)NC(=O)CC1c1ccccc1 (stereo not drawn) &field=z-score returns 0.409

Value of measured z-score for the entry O=C(CSc1nnc(-c2cnccn2)n1Cc1ccco1)c1ccc(Cl)cc1 : -0.74
